Origin of values: ChEMBL document CHEMBL3779829

ASSAY TARGET: E3 ubiquitin-protein ligase UHRF1 (Homo sapiens)
Sequence (whole entry): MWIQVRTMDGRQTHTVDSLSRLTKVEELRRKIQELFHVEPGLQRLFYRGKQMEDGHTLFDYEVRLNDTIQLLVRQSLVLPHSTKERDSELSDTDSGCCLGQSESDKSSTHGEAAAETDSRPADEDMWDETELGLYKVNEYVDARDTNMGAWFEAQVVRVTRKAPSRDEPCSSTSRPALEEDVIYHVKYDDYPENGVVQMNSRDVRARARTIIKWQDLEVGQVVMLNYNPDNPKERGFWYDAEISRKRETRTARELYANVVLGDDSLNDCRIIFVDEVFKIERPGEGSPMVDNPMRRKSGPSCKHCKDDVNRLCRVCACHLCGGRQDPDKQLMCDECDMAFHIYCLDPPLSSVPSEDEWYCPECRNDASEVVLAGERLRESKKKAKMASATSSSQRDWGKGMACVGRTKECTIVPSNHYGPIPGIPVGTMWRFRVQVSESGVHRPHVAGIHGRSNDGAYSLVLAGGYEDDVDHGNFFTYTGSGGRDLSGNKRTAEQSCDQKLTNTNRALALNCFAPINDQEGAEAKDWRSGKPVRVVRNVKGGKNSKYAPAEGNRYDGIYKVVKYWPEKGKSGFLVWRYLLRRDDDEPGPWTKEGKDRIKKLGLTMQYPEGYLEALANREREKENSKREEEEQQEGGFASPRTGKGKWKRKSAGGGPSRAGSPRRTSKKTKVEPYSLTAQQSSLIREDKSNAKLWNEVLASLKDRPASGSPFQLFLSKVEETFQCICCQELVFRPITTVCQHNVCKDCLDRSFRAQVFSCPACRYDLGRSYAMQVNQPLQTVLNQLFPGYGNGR
ASSAY: Inhibition of UHRF1 in human MCF7 cells assessed as DNA global demethylation by measuring 5-methylcytosine level at 15 uM after 72 hrs by HPLC-MS/MS analysis (reference value: 1.7 +/- 0.36%)
Type: cell-based
Parameters: scale not given: the % may be the effect or the level left
Note to self: use YES only for Activity readings below 0.9%; a reading exactly at 0.9% still gets NO.

Here are 4 compounds together with their reported answers.
{"columns": ["COMPOUND", "ASSIGNED CATEGORY"],
 "data": [
  ["CC(=O)c1c[nH]c(=O)[nH]c1=O", "YES"],
  ["CCOC(=O)c1cnc(=O)[nH]c1N", "YES"],
  ["O=C1NC(=O)C2(CC2)C(=O)N1", "YES"],
  ["CN(C)c1c[nH]c(=O)[nH]c1=O", "YES"]
]}

Continue with the next compound.
I'd appreciate it if you could check whether c1ccc2c(C3CCN(CCN4CCOCC4)C3)c[nH]c2c1 (stereo unspecified) has Activity smaller than 0.9%.
NO
